B1: library; numbered along this chain (parent)
chain: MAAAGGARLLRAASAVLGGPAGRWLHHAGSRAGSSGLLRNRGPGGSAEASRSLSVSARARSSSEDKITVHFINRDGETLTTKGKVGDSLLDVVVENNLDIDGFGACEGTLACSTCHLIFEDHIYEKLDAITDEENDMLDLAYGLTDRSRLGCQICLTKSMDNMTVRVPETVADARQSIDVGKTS

Variants of: B1
Assay: scaled log2 fold change in cell abundance, elesclomol vs control (0 = silent mean, 1 = nonsense mean) (scaled log2 ratio); higher = higher viability under elesclomol (loss of FDX1 cuproptosis function);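 also: variant abundance is its share of total variant reads in each endpoint sample, from next-generation sequencing of the integrated ORF PCR-amplified out of genomic DNA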
Settings: with ABC1 FDX1 KO; elesclomol 5 nM; glucose 10 mM; 14 days
observedProperty: scaled log2 fold change
Give bare numbers.

Use these answered entries as a reference point.
response.value for C115H (field: scaled log2 fold change) = 0.953

response.value for K66Q (field: scaled log2 fold change) = -0.382

response.value for A57E (field: scaled log2 fold change) = -0.0705

Please look at the items below and tell me scaled log2 fold change for each one, in order.
1. A59S
2. G6K
3. L25D
4. S54R
5. T81L
6. L127P
7. A7H

Reply:
1: 0.217; 2: 0.0797; 3: -0.703; 4: 0.322; 5: 0.127; 6: 0.814; 7: 0.443

Please look at the items below and tell me scaled log2 fold change for each one, in order.
1. S177R
2. S34T
3. G151S
4. G22I
5. S62Y
6. D75Y
7. R39K
8. V93G

Reply:
1. -0.0538
2. 0.125
3. 0.0704
4. 0.314
5. -0.427
6. -0.306
7. -0.687
8. 0.574

Please look at the items below and tell me scaled log2 fold change for each one, in order.
1. N97P
2. A129S
3. M163C
4. V165A

Reply:
[-0.344, 0.0531, -0.512, -0.0573]
